- assay.procedure: Clearance in rat blood
- Type: ADME, organism-based
measured.parameter: clearance (mL/min/kg)
Write the value in mL/min/kg as a bare number.

Q: Given Cc1cc(-n2ncc(=O)[nH]c2=O)cc(C)c1Oc1ccc(O)c(Cc2ccc(F)cc2)c1 , state its recorded clearance.
Ans: 51

====

- assay.procedure: Metabolic stability in […] human liver microsomes
- Assay type: ADME, Microsome
measured.parameter: half-life (min)
Write the value in min as a bare number.

Q: Given Cc1cc(-n2ncc(=O)[nH]c2=O)cc(C)c1Oc1ccc(O)c(Cc2ccc(F)cc2)c1 , state its recorded half-life.
Ans: 39

====

- assay.procedure: Intrinsic clearance in human
- Assay type: ADME, organism-based
- conditions.used: not recorded
measured.parameter: CLint scaled (mL/min/kg)
Write the value in mL/min/kg as a bare number.

Q: Given Cc1cc(-n2ncc(=O)[nH]c2=O)cc(C)c1Oc1ccc(O)c(Cc2ccc(F)cc2)c1 , state its recorded CLint scaled.
Ans: 29

====

- target.system: UniProt:P10827
- Sequence (P10827 whole entry): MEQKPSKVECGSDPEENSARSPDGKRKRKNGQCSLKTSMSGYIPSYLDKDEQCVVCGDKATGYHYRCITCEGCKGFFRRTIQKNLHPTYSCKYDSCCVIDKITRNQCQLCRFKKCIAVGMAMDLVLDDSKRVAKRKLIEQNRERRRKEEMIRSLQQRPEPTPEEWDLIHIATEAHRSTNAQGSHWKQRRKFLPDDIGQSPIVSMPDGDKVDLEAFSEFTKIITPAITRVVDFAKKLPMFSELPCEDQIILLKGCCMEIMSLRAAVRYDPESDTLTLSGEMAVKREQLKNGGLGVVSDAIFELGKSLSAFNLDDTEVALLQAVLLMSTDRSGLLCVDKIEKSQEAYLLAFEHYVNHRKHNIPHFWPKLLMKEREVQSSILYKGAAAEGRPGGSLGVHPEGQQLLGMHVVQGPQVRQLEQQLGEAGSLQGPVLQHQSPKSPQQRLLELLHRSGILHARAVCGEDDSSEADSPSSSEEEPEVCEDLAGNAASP
- assay.procedure: Binding affinity to thyroid receptor alpha
measured.parameter: pKi
Lab note — pKi values are minus log10 of concentrations in M.

Q: Given O=C(c1cc(Oc2c(Cl)cc(-n3ncc(=O)[nH]c3=O)cc2Cl)ccc1O)N1CCc2ccccc2C1 , state its recorded pKi.
Ans: 6.90

Q: Given Cc1cc(NC(=O)CC(=O)O)cc(Cl)c1Oc1ccc(O)c(S(=O)(=O)CC2CCC2)c1 , state its recorded pKi.
Ans: 8.68

Q: Given O=c1cnn(-c2cc(Cl)c(Oc3ccc(O)c(Cc4ccc(F)cc4)c3)c(Cl)c2)c(=O)[nH]1 , state its recorded pKi.
Ans: 8.10

Q: Given O=C(c1cc(Oc2c(Cl)cc(-n3ncc(=O)[nH]c3=O)cc2Cl)ccc1O)N1CCCCC1 , state its recorded pKi.
Ans: 7.70

Q: Given Cc1cc(-n2ncc(=O)[nH]c2=O)cc(C)c1Oc1ccc(O)c(Cc2ccc(F)cc2)c1 , state its recorded pKi.
Ans: 8.52

Q: Given Cc1cc(NC(=O)C(=O)O)cc(C)c1Oc1ccc(O)c2c1CCC2 , state its recorded pKi.
Ans: 9.15

====

- assay.procedure: Half life in rat hepatocytes
- Format: ADME, cell-based, Liver, Hepatocyte
measured.parameter: half-life (min)
Write the value in min as a bare number.

Q: Given Cc1cc(-n2ncc(=O)[nH]c2=O)cc(C)c1Oc1ccc(O)c(Cc2ccc(F)cc2)c1 , state its recorded half-life.
Ans: 45

Hello, the source for this data is ChEMBL document CHEMBL1153106, in case you need it.
